tested on: Staphylococcus aureus; assay: Microbicidal activity of the myeloperoxidase system (p-MPO, glucose oxidase, glucose) with amino acids in the presence of blood, CFU plate counts; synergy determination from these CFU; type: cell-based; conditions: MPO 100 μg/mL; AA 20 mM; 60 min
property-measured: Log 10 (CFU + 1) Survivors

Use these answered entries as a reference point.
compound="CC(C)[C@@H](N)C(=O)O [D-Valine]" test_target="Staphylococcus aureus" property_measured="Log 10 (CFU + 1) Survivors" assay_result=0.0
compound="N[C@H](Cc1ccccc1)C(=O)O [D-Phenylalanine]" test_target="Staphylococcus aureus" property_measured="Log 10 (CFU + 1) Survivors" assay_result=0.0

Query :: I'd like to know its Log 10 (CFU + 1) Survivors. The compound in question is CC(C)[C@H](N)C(=O)O [L-Valine]
Result :: 0.0

Query :: Query O=C(O)CNC(=O)c1ccccc1 [Hippuric acid] next
Result :: 5.0

Query :: Query N[C@H](Cc1c[nH]cn1)C(=O)O [D-Histidine] next
Result :: 3.9

----------
Each entry below carries its reported Log 10 (CFU + 1) Survivors.
system: Staphylococcus aureus; assay: Microbicidal activity of the myeloperoxidase system (p-MPO, glucose oxidase, glucose) with amino acids in the presence of blood, CFU plate counts; synergy determination from these CFU; format: cell-based; conditions: MPO 100 μg/mL; AA 5 mM; 60 min
Please give only the number in your answer, with no unit.

Use these answered entries as a reference point.
substance_smiles=CC[C@@H](C)[C@@H](N)C(=O)O property_measured="Log 10 (CFU + 1) Survivors" assay_result=0.0
substance_smiles=N[C@@H](CC(=O)O)C(=O)O property_measured="Log 10 (CFU + 1) Survivors" assay_result=5.8
substance_smiles=N[C@@H](CO)C(=O)O property_measured="Log 10 (CFU + 1) Survivors" assay_result=0.0
substance_smiles=N[C@H](Cc1ccccc1)C(=O)O property_measured="Log 10 (CFU + 1) Survivors" assay_result=0.0

Now consider the entry below.
Query :: Can you look up Log 10 (CFU + 1) Survivors on Staphylococcus aureus for COC(=O)[C@H](C)N ?
Result :: 0.0

----------
test system: Staphylococcus aureus; test: Control: microbicidal activity of the amino acid or analogue alone (no glucose, MPO, glucose oxidase) in the presence of blood; assay type: cell-based; details: Staphylococcus aureus, 1 h; amino acid alone 5 mM; MPO 0; GO 0; no glucose; blood; without replication; read-out: Log Reduction 60 min
Each entry below carries its reported log reduction at 5000 µM.
Please give only the number in your answer, with no unit.

Query :: I'd like to know its log reduction at 5000 µM. The compound in question is C[C@H](O)[C@@H](N)C(=O)O
Result :: 0

Query :: Query NC(=O)CC[C@H](N)C(=O)O next
Result :: 0

Query :: Query CC(C)C[C@H](N)C(=O)O next
Result :: 0.1

Query :: Query O=C(O)CNC(=O)c1ccccc1 next
Result :: 0

Query :: Query N[C@@H](Cc1ccccc1)C(=O)O next
Result :: 0

----------
Each entry below carries its reported Log 10 (CFU + 1) Survivors.
tested on: Staphylococcus aureus; assay: Microbicidal activity of the myeloperoxidase system (p-MPO, glucose oxidase, glucose) with amino acids in the presence of blood, CFU plate counts; synergy determination from these CFU; assay type: cell-based; conditions: MPO 100 μg/mL; AA 20 mM; 60 min
Please give only the number in your answer, with no unit.

Use these answered entries as a reference point.
substance_smiles=NCC(=O)O property_measured="Log 10 (CFU + 1) Survivors" assay_result=0.0
substance_smiles=N[C@H](CO)C(=O)O property_measured="Log 10 (CFU + 1) Survivors" assay_result=3.9
substance_smiles=C[C@@H](O)[C@H](N)C(=O)O property_measured="Log 10 (CFU + 1) Survivors" assay_result=7.3
substance_smiles=COC(=O)[C@H](C)N property_measured="Log 10 (CFU + 1) Survivors" assay_result=0.0

Query :: I'd like to know its Log 10 (CFU + 1) Survivors. The molecule in question is N=C(N)NCCC[C@@H](N)C(=O)O
Result :: 6.8

These entries and their values trace back to patent US8945540B2.
